Examples of compounds with documented log(Kinetic_solubility) follow.
# ASSAY_INFO: Kinetic solubility of the compound incubated for 60 mins under shaking condition by UHPLC-MS analysis
# Format: physicochemical
# CONDITION_CONTEXT: 1 h
Non-standard residues stand in square brackets, D forms with d. Residues, ends and D or L forms follow the SMILES beside them. *: point of attachment. X1 = Fc1ccc(-c2csc(N3CCOCC3)n2)c(OCCOCCOCCN*)c1F; Dip = N[C@H](C(=O)O)C(c1ccccc1)c1ccccc1; Chg = N[C@H](C(=O)O)C1CCCCC1; NMeA = CN[C@@H](C)C(=O)O
Lab note: jot down the number only; don't add units.

Look over these answered cases.
- COMPOUND: "COc1ccc2c(c1)c(CC(=O)NCCN1CCN(C(=O)CCC(=O)N[C@H](C(=O)N3C[C@H](O)C[C@H]3C(=O)N[C@@H](C)c3ccc(-c4scnc4C)cc3)C(C)(C)C)CC1)c(C)n2C(=O)c1ccc(Cl)cc1"
  log(Kinetic_solubility): -5.7
- COMPOUND: "Cc1ncsc1-c1ccc(CNC(=O)[C@@H]2C[C@@H](O)CN2C(=O)[C@@H](NC(=O)COCCOCCOCCOCCOCCOCC(=O)N[C@H](C(=O)N2C[C@H](O)C[C@H]2C(=O)NCc2ccc(-c3scnc3C)cc2)C(C)(C)C)C(C)(C)C)cc1"
  log(Kinetic_solubility): -3.24
- COMPOUND: "COc1ccc2c(c1)c(CC(=O)N1CCN(CCC(=O)N[C@H](C(=O)N3C[C@H](O)C[C@H]3C(=O)N[C@@H](C)c3ccc(-c4scnc4C)cc3)C(C)(C)C)CC1)c(C)n2C(=O)c1ccc(Cl)cc1"
  log(Kinetic_solubility): -6.1
- COMPOUND: "CN[C@@H](C)C(=O)N[C@H](C(=O)N1CCC[C@H]1C(=O)N[C@H](C(=O)NCCOCCOCCOc1c(-c2csc(N3CCOCC3)n2)ccc(F)c1F)C(c1ccccc1)c1ccccc1)C1CCCCC1 (H-[NMeA][Chg]P[Dip]-X1)"
  log(Kinetic_solubility): -4.55

Alright, here's another compound for you.
Form field log(Kinetic_solubility), entry Cc1ncsc1-c1ccc(CNC(=O)[C@@H]2C[C@@H](O)CN2C(=O)[C@@H](NC(=O)CCCCOCCCCCOCCCCCCNc2cccc3c2C(=O)N(C2CCC(=O)NC2=O)C3=O)C(C)(C)C)cc1 (stereo not given in full) : -7.05

----------
# ASSAY_INFO: Distribution coefficient, logD of compound in n-Octanol/PBS at pH 7.4 incubated for 30 mins under shaking condition by UHPLC-MS analysis
# Format: physicochemical
hey, just use 1.0 if measured logD at 0.5 h is less than 5, otherwise 0.0

Please review the following examples before continuing.
- MOLECULE: "Cc1ncsc1-c1ccc([C@H](C)NC(=O)[C@@H]2C[C@H](O)CN2C(=O)[C@@H](NC(=O)COCCOCCOCC(=O)N[C@H](C(=O)N2C[C@@H](O)C[C@H]2C(=O)N[C@@H](C)c2ccc(-c3scnc3C)cc2)C(C)(C)C)C(C)(C)C)cc1"
  CLASS_ASSIGNMENT: 1.0
- MOLECULE: "CCOC(=O)c1c(C)n(Cc2ccccc2)c2ccc(OCCCCCCCCCCC(=O)N[C@H](C(=O)N3C[C@H](O)C[C@H]3C(=O)N[C@@H](C)c3ccc(-c4scnc4C)cc3)C(C)(C)C)cc12"
  CLASS_ASSIGNMENT: 0.0
- MOLECULE: "CC(=O)c1c(C)c2cnc(Nc3ccc(N4CCN(CCOCCOCCOCCNC(=O)COc5cccc6c5C(=O)N(C5CCC(=O)NC5=O)C6=O)CC4)cn3)nc2n(C2CCCC2)c1=O (stereo not given)"
  CLASS_ASSIGNMENT: 1.0

Problem: Lab note: confirm whether the reported logD at 0.5 h for this molecule is below 5, equality not counting. molecule: Cc1ncsc1-c1ccc([C@H](CC(=O)NCCCCCCNC(=O)COc2c(-c3csc(N4CCOCC4)n3)ccc(F)c2F)NC(=O)[C@@H]2C[C@@H](O)CN2C(=O)[C@@H](NC(=O)C2(F)CC2)C(C)(C)C)cc1
Solution: 1.0

Values were extracted from ChEMBL document CHEMBL5579898.
